Quick reference: inhibition of the listed items.
Biological target: 5-hydroxytryptamine receptor 1B (Homo sapiens)
Details: Compound concentration 10 µM
Description: PDSP Primary Binding target: HTR1B - Compounds are tested at 10 uM concentration, plate are incubated at room temperature in the dark for 90 minutes. Reaction are stopped by vacuum filtration onto 0.3% polyethyleneimine soaked filter mats using Filtermate harvester. Scintilation cocktail is then melted onto microwave-dried filters on a hot plate and the radio activity is counted in Microbia counter.
Answer with a number only, understood to be in %.

For orientation, consider the following solved cases.
| compound | inhibition, % |
| --- | --- |
| CC(C)[C@H](CO)Nc1nc(Nc2cccc(Cl)c2)c2ncn(C(C)C)c2n1 | 38.1 |
| COc1ccccc1CN[C@H]1C2CCN(CC2)[C@H]1C(c1ccccc1)c1ccccc1 | 8.03 |
| CCC(=O)NCC[C@@H]1CCc2ccc3c(c21)CCO3 | 15.8 |
| CCN(CC)CCCCC1CCN(CC(=O)N2c3ccccc3C(=O)Nc3cccnc32)CC1 | 14.9 |
| Brc1c(NC2=NCCN2)ccc2nccnc12 | 7.31 |
| Cc1cc(C(=O)N2Cc3cnn(C)c3Nc3ccccc32)ccc1CNC(=O)N1CCC[C@H]1C(=S)N1CCCN(C)CC1 | 20.7 |
| CN1CCC(=C2c3ccccc3CC(=O)c3sccc32)CC1 | 63.1 |
| CNC[C@H](O)c1ccc(O)c(O)c1 | 11.1 |

Here's the next entry for you.
Exercise: What does the record list as inhibition for `COc1ccc(NS(=O)(=O)c2sc3ccc(Cl)cc3c2C)cc1N1CCNCC1` ?
Solution: 48.8
